System: Rattus norvegicus
Assay: CNS toxicity in iv dosed Sprague-Dawley rat assessed as cumulative convulsion dose
Assay type: organism-based
Conditions: in vivo
TEST READOUT: Activity (µmol/kg)
Give the quantity in µmol/kg, number only.

c1ccc2c(CCO[C@@H]3CCCC[C@H]3N3CCOCC3)csc2c1 : 65
Clc1cccc(Cl)c1CCO[C@@H]1CCCC[C@H]1N1CCSC1 : 331

API: the following record is the query input.
Prompt: I am curious: what Activity value has been reported for `c1ccc2c(CCO[C@@H]3CCCC[C@H]3N3CCC4(C3)OCCO4)cccc2c1` ?
Response: 41

----------
Tested on: Rattus norvegicus
Test: CNS toxicity in iv dosed Sprague-Dawley rat assessed as cumulative convulsion dose
Type: organism-based
Settings: in vivo
Please note: Activity exactly at 90 µmol/kg is criterion not met. Only values below 90 µmol/kg get criterion met.

The examples below pair each entry with its known result.
COc1ccc(CCO[C@@H]2CCCC[C@H]2N2CCCC2)cc1OC : criterion not met
OC1CCN([C@@H]2CCCC[C@H]2OCCc2cccc3ccccc23)C1 (mixture of isomers) : criterion met
O=C1CCN([C@@H]2CCCC[C@H]2OCCc2cccc3ccccc23)C1 (stereo in doubt; 26) : criterion not met
O=C1CCN([C@@H]2CCCC[C@H]2OCCc2ccccc2C(F)(F)F)C1 : criterion not met
OC1CCN([C@@H]2CCCC[C@H]2OCCc2ccccc2Br)C1 (mixture of isomers) : criterion met

Prompt: Is Activity of `O=C1CCN([C@@H]2CCCC[C@H]2OCCc2ccc(Br)cc2)C1` strictly below 90 µmol/kg?
Response: criterion not met

Prompt: Is Activity of `O=C1CCN([C@@H]2CCCC[C@H]2OCCc2ccc(Br)c3ccccc23)C1` strictly below 90 µmol/kg?
Response: criterion not met

Prompt: Is Activity of `O=C1CCN([C@H]2CCCC[C@@H]2OCCc2cccc3ccccc23)C1` strictly below 90 µmol/kg?
Response: criterion not met

Prompt: Is Activity of `Brc1cccc(CCO[C@@H]2CCCC[C@H]2N2CCOCC2)c1` strictly below 90 µmol/kg?
Response: criterion not met

Prompt: Is Activity of `c1ccc2c(CCO[C@@H]3CCCC[C@H]3N3CCOCC3)cccc2c1` strictly below 90 µmol/kg?
Response: criterion not met

Prompt: Is Activity of O=C1CCN([C@@H]2CCCC[C@H]2OCCc2cccc3ccccc23)C1 (stereo in doubt; 40) strictly below 90 µmol/kg?
Response: criterion not met

Prompt: Is Activity of `CCN(CC)CC(=O)Nc1c(C)cccc1C` strictly below 90 µmol/kg?
Response: criterion not met

----------
Collected Activity values appear next to each entry.
System: Rattus norvegicus
Experiment: CNS toxicity in iv dosed Sprague-Dawley rat assessed as cumulative convulsion dose
Type: organism-based
Conditions: in vivo
Give the quantity in µmol/kg, number only.

Sample answers from the record:
O=C(NCC1CCCCN1)c1cc(OCC(F)(F)F)ccc1OCC(F)(F)F (configuration not stated) [FLECAINIDE] : 113
OC1CCN([C@@H]2CCCC[C@@H]2OCCc2cccc3ccccc23)C1 (mixture of isomers) : 70
Clc1ccc(CCO[C@@H]2CCCC[C@H]2N2CCOCC2)c(Cl)c1 : 94
O=C1CCN([C@@H]2CCCC[C@H]2OCCc2cccc3ccccc23)CC1 : 75
COc1ccc(CCO[C@@H]2CCCC[C@H]2N2CCOCC2)cc1OC : 113

Prompt: For Rattus norvegicus, provide Activity of `COc1ccc(CCCO[C@@H]2CCCC[C@H]2N2CCOCC2)c(OC)c1` please.
Response: 94

Prompt: For Rattus norvegicus, provide Activity of `c1ccc2cc(OCCO[C@@H]3CCCC[C@H]3N3CCOCC3)ccc2c1` please.
Response: 62

Prompt: For Rattus norvegicus, provide Activity of `O=C1CCN([C@@H]2CCCC[C@H]2OCCc2ccc(Br)cc2Br)C1` please.
Response: 246

Prompt: For Rattus norvegicus, provide Activity of `Clc1ccc(CCO[C@@H]2CCCC[C@H]2N2CCOCC2)cc1Cl` please.
Response: 118

Prompt: For Rattus norvegicus, provide Activity of `c1ccc2cc(CCO[C@@H]3CCCC[C@H]3N3CCOCC3)ccc2c1` please.
Response: 85

Prompt: For Rattus norvegicus, provide Activity of `FC(F)(F)c1ccccc1CCO[C@@H]1CCCC[C@H]1N1CCOCC1` please.
Response: 134

Prompt: For Rattus norvegicus, provide Activity of `Brc1ccc(CCCO[C@@H]2CCCC[C@H]2N2CCOCC2)cc1` please.
Response: 143
